Here, each record is paired with measured log10 of MIC data.
System: Streptococcus pyogenes
Assay explanation: Minimum inhibitory concentration was evaluated in vitro against Streptococcus pyogenes C 203
Type: functional
Condition details: Streptococcus pyogenes; read-out: MIC
Assay metric: log10 of MIC (log10 of the value in µg/mL)

INSERT INTO results (compound, assay_metric, result_value) VALUES
  ('CN[C@H](C)[C@H]1CCN(c2cc3c(cc2F)c(=O)c(C(=O)O)cn3C2CC2)C1', 'log10 of MIC', -1.00),
  ('C[C@@H](N)[C@@H]1CCN(c2c(F)c(N)c3c(=O)c(C(=O)O)cn(C4CC4)c3c2F)C1', 'log10 of MIC', -2.22),
  ('CCNCC1CCN(c2cc3c(c(N)c2F)c(=O)c(C(=O)O)cn3C2CC2)C1 (configuration not stated)', 'log10 of MIC', -1.00),
  ('CCN[C@H](C)[C@H]1CCN(c2c(F)cc3c(=O)c(C(=O)O)cn(C4CC4)c3c2C(F)(F)F)C1 (racemic)', 'log10 of MIC', -1.60),
  ('CN[C@@H](C)[C@H]1CCN(c2nc3c(cc2F)c(=O)c(C(=O)O)cn3C2CC2)C1', 'log10 of MIC', -0.40),
  ('CC1(CN)CCN(c2nc3c(cc2F)c(=O)c(C(=O)O)cn3C2CC2)C1 (configuration not stated)', 'log10 of MIC', -1.30),
  ('CN[C@@H](C)[C@H]1CCN(c2c(F)c(N)c3c(=O)c(C(=O)O)cn(C4CC4)c3c2F)C1', 'log10 of MIC', 0.20),
  ('CN[C@H](C)[C@H]1CCN(c2c(F)cc3c(=O)c(C(=O)O)cn(C4CC4)c3c2C(F)(F)F)C1 (mixture of isomers)', 'log10 of MIC', -1.89),
  ('CNCC1CCN(c2nc3c(cc2F)c(=O)c(C(=O)O)cn3C2CC2)C1 (configuration not stated)', 'log10 of MIC', -1.30),
  ('CCn1cc(C(=O)O)c(=O)c2cc(F)c(N3CC[C@@H]([C@@H](C)N)C3)c(F)c21', 'log10 of MIC', -1.30),
  ('CC(N)C1CCN(c2c(F)cc3c(=O)c(C(=O)O)cn(C4CC4)c3c2F)C1 (racemic)', 'log10 of MIC', -2.22),
  ('CCNC[C@@H]1CCN(c2c(F)cc3c(=O)c(C(=O)O)cn(CC)c3c2F)C1', 'log10 of MIC', -1.00),
  ('CC1(CN)CCN(c2c(F)c(N)c3c(=O)c(C(=O)O)cn(C4CC4)c3c2F)C1 (configuration not stated)', 'log10 of MIC', -1.89),
  ('CN[C@H](C)[C@@H]1CCN(c2nc3c(cc2F)c(=O)c(C(=O)O)cn3C2CC2)C1', 'log10 of MIC', -1.30),
  ('C[C@@H](N)[C@H]1CCN(c2c(F)c(N)c3c(=O)c(C(=O)O)cn(C4CC4)c3c2F)C1 (racemic)', 'log10 of MIC', -2.52),
  ('CCN[C@H](C)[C@@H]1CCN(c2c(F)cc3c(=O)c(C(=O)O)cn(C4CC4)c3c2OC)C1', 'log10 of MIC', -2.52),
  ('COc1c(N2CC[C@@H]([C@H](C)N)C2)c(F)cc2c(=O)c(C(=O)O)cn(C3CC3)c12', 'log10 of MIC', -1.60);
